- Test system: HCV replicon cells
- assay_text: Cell-based HCV replicon assay (replicon RNA level by real time PCR, Taqman)
- experimental_parameters: Hepatitis C virus, 72 h, HCV replicon cells, harvested day 3, replicon RNA by real time PCR; reported as range class; read-out: EC90 (μM) range
observable: EC90

Here's what some known entries look like.
CCOc1cc2cc(-c3c(Cl)nc(NCCOC)nc3N[C@@H]3C[C@H](CO)[C@@H](O)[C@H]3O)oc2c(C)n1 ... < 0.5 µM
CO[C@@H](C)CNc1nc(C)c(-c2nc3ccccc3s2)c(N[C@@H]2C[C@H](CO)[C@@H](O)[C@H]2O)n1 ... < 0.5 µM
OC[C@H]1C[C@@H](Nc2nc(NCC(F)F)nc(Cl)c2-c2nc3ccccc3s2)[C@H](O)[C@@H]1O ... < 0.5 µM

Next, consider the following compound.
Exam item: So what's the measured EC90 for this one? "Cc1ccc2nc(-c3c(Cl)nc(N)nc3N[C@@H]3C[C@H](CO)[C@H]4OC(C)(C)O[C@H]43)oc2c1"
Marked response: > 5 µM

----------
- System: HCV replicon cells
- assay_text: Cell-based HCV replicon assay (replicon RNA level by real time PCR, Taqman)
- experimental_parameters: Hepatitis C virus, 72 h, HCV replicon cells, harvested day 3, replicon RNA by real time PCR; reported as range class; read-out: EC90 (μM) range
observable: EC90

Here's what some known entries look like.
OC[C@H]1C[C@@H](Nc2nc(NCCCC(F)(F)F)nc(Cl)c2-c2nc3ccccc3s2)[C@H](O)[C@@H]1O ... < 0.5 µM
CCc1nccc2cc(-c3c(Cl)nc(N)nc3N[C@@H]3C[C@H](CO)[C@@H](O)[C@H]3O)oc12 ... < 0.5 µM
COCCN(C)c1nc(Cl)c(-c2nc3ccccc3s2)c(N[C@@H]2C[C@H](CO)[C@@H](O)[C@H]2O)n1 ... 0.5 to 5 µM
Nc1nc(Cl)c(-c2cc3cncnc3o2)c(N[C@@H]2C[C@H](CO)[C@@H](O)[C@H]2O)n1 ... > 5 µM
CCOc1cc2cc(-c3c(C)nc(NCCOC)nc3N[C@@H]3C[C@H](CO)[C@@H](O)[C@H]3O)oc2c(C)n1 ... < 0.5 µM

Working through the 7 compounds below one at a time, give EC90 for each.
1. CN(C)c1nc(Cl)c(-c2nc3ccccc3s2)c(N[C@@H]2C[C@H](CO)[C@@H](O)[C@H]2O)n1
2. Nc1nc(Cl)c(-c2cc3cc(-c4nc5ccccc5o4)ccc3o2)c(N[C@@H]2C[C@H](CO)[C@@H](O)[C@H]2O)n1
3. Nc1nc(N[C@@H]2C[C@H](CO)[C@@H](O)[C@H]2O)c(-c2ncco2)c(-c2ncco2)n1
4. Nc1nc(Cl)c(-c2ccco2)c(N[C@@H]2C[C@H](CO)[C@@H](O)[C@H]2O)n1
5. COc1cc2cc(-c3c(Cl)nc(NCC(F)(F)F)nc3N[C@@H]3C[C@H](CO)[C@@H](O)[C@H]3O)oc2cn1
6. Nc1nc(Cl)c(-c2cscn2)c(N[C@@H]2C[C@H](CO)[C@@H](O)[C@H]2O)n1
7. COCCNc1nc(C)c(-c2nc3ccccc3s2)c(N[C@@H]2C[C@H](CO)[C@@H](O)[C@H]2O)n1

Marked response:
1. < 0.5 µM
2. > 5 µM
3. > 5 µM
4. > 5 µM
5. < 0.5 µM
6. > 5 µM
7. < 0.5 µM

Exam item: So what's the measured EC90 for this one? "Nc1nc(Cl)c(-c2cccs2)c(N[C@@H]2C[C@H](CO)[C@@H](O)[C@H]2O)n1"
Marked response: > 5 µM
